The origin of these recorded values is the RNAGym collection of RNA variant scans (doi:10.1073/pnas.2313332121).

I'd appreciate it if you could supply polymerase ribozyme fitness (log ratio) values for the items below.
B1: TPR t1 (parent)
chain: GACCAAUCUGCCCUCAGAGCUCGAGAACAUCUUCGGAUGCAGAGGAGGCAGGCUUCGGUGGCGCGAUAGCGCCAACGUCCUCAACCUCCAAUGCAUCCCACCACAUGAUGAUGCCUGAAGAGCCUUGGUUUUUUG

Variants of: B1
Test: polymerase ribozyme fitness, log enrichment relative to wild type (log ratio); higher = more active; in vitro selection for triplet polymerase activity
Answers are plain numbers.

Some entries whose results are on file:
{"var": "G42A G45U C82U C89U A90U A118G", "testResult": -1.67}
{"var": "C72U A91C G93U U126G", "testResult": -4.23}
{"var": "C49G U59G C62U G122A", "testResult": -1.61}
{"var": "C70A U81C C88A G120U", "testResult": -3.19}
{"var": "C56U G113U G120A", "testResult": -3.03}
{"var": "G61C A74U", "testResult": -4.43}
{"var": "G42U C124G G135C", "testResult": 0.643}
{"var": "C4U A41G", "testResult": -0.698}
{"var": "C12U C34A G71U U78G U125A", "testResult": -3.95}
{"var": "C8G C15G", "testResult": -1.24}

I need polymerase ribozyme fitness (log ratio) for every entry listed below, if you could help.
1. U92A C124U
2. G48A U106C
3. C3A G117C
4. U59C U129C
5. C8A U14C G93U
6. C13G A50U G61U
7. C34G C72U
8. C8A C34A C98G U126G

[-1.43, 0.21, -3.87, -1.12, -0.798, -3.51, -5.89, -4.07]

Your task in this section: give polymerase ribozyme fitness (log ratio) for each listed record.
1. A18G A121U
2. G19U U55G U87G A95C U112C C114A
3. C114U
4. A29U C56G C85A
5. C62G C86A
6. U87C G120U

1: -1.13; 2: 0.393; 3: -1.7; 4: -4.99; 5: -3.17; 6: -1.06
